# System: IFN-α secretion, peripheral blood mononuclear cells (PBMCs)
# assay-name: Suppression of IFN-α secretion in ODN2216-treated PBMCs (ELISA)
# Type: cell-based
# test-parameters: PBMC, 0.1 μM, 500 nM ODN2216, 72 hours, read-out: IFN-α, % inhibition degree
endpoint-name: inhibition at 0.1 µM (%)
Note: unit % is implicit; provide only the numeric part.

Query :: Recorded inhibition at 0.1 µM of COc1cccc(-c2ccc3[nH]c4ncnc(N[C@H]5CC[C@H](N6CCOCC6)CC5)c4c3c2)c1 , please.
Result :: 6.4

Query :: Recorded inhibition at 0.1 µM of Fc1ccc(-c2ccc3[nH]c4ncnc(N[C@H]5CC[C@H](N6CCOCC6)CC5)c4c3c2)cc1 , please.
Result :: 28

Query :: Recorded inhibition at 0.1 µM of Fc1cncc(-c2ccc3[nH]c4ncnc(N[C@H]5CC[C@H](N6CCOCC6)CC5)c4c3c2)c1 , please.
Result :: 48

Query :: Recorded inhibition at 0.1 µM of c1cc(-c2ccc3c(c2)[nH]c2ncnc(N[C@H]4CC[C@H](N5CCOCC5)CC4)c23)ccn1 , please.
Result :: 40

Query :: Recorded inhibition at 0.1 µM of c1cc(-c2ccc3[nH]c4ncnc(N[C@H]5CC[C@H](N6CCOCC6)CC5)c4c3c2)ccn1 , please.
Result :: 31

Query :: Recorded inhibition at 0.1 µM of COc1cncc(-c2ccc3[nH]c4ncnc(N[C@H]5CC[C@H](N6CCOCC6)CC5)c4c3c2)c1 , please.
Result :: 31

Query :: Recorded inhibition at 0.1 µM of CCOC(=O)c1ccc2[nH]c3ncnc(N[C@H]4CC[C@H](N5CCOCC5)CC4)c3c2c1 , please.
Result :: 27

Query :: Recorded inhibition at 0.1 µM of COc1ccc(-c2ccc3[nH]c4ncnc(N[C@H]5CC[C@H](N6CCOCC6)CC5)c4c3c2)cn1 , please.
Result :: 15

Query :: Recorded inhibition at 0.1 µM of Cn1cc(-c2ccc3[nH]c4ncnc(N[C@H]5CC[C@H](N6CCN(S(C)(=O)=O)CC6)CC5)c4c3c2)cn1 , please.
Result :: 40

Query :: Recorded inhibition at 0.1 µM of N#Cc1cccc(-c2ccc3[nH]c4ncnc(N[C@H]5CC[C@H](N6CCOCC6)CC5)c4c3c2)c1 , please.
Result :: 53

Query :: Recorded inhibition at 0.1 µM of Oc1cncc(-c2ccc3[nH]c4ncnc(N[C@H]5CC[C@H](N6CCOCC6)CC5)c4c3c2)c1 , please.
Result :: 48

Query :: Recorded inhibition at 0.1 µM of COc1cncc(-c2ccc3[nH]c4nccc(N[C@H]5CC[C@H](N6CCOCC6)CC5)c4c3c2)c1 [Compound 17b] , please.
Result :: 76

Query :: Recorded inhibition at 0.1 µM of Cn1cc(-c2ccc3[nH]c4ncnc(N[C@H]5CC[C@H](N(C)C)CC5)c4c3c2)cn1 , please.
Result :: 54

Query :: Recorded inhibition at 0.1 µM of CN(C)[C@H]1CC[C@H](Nc2ncnc3[nH]c4ccc(-c5cncc(F)c5)cc4c23)CC1 , please.
Result :: 3.4

Query :: Recorded inhibition at 0.1 µM of Cn1cc(-c2ccc3[nH]c4ncnc(Nc5ccc(N6CCNCC6)cc5)c4c3c2)cn1 , please.
Result :: 39

----------
# target-entity: IRAK4 enzyme (Homo sapiens)
# Sequence (Q9NWZ3 whole entry): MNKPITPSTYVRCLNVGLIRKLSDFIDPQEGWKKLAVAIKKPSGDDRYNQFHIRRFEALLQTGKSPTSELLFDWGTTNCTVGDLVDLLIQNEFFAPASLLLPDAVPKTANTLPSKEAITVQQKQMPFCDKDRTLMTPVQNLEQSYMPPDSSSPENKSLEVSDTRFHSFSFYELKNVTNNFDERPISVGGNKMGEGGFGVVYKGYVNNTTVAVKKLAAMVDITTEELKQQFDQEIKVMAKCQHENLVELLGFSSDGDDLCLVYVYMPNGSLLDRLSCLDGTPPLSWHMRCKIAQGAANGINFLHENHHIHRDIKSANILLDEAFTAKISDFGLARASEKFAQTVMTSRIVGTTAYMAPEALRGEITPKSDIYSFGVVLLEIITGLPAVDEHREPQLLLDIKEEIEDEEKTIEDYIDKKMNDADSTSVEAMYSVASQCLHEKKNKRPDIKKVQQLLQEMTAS
# assay-name: IRAK4 enzyme inhibition degree (bead-based kinase assay, peptide substrate BMKC-2, 100 μM ATP)
# Assay type: biochemical
# test-parameters: compound 1 μM
endpoint-name: inhibition at 1 µM (%)
Note: unit % is implicit; provide only the numeric part.

Query :: Recorded inhibition at 1 µM of c1nc(N[C@H]2CC[C@H](N3CCOCC3)CC2)c2c(n1)[nH]c1ccc(-c3nnc4n3CCC4)cc12 [Compound 6bad] , please.
Result :: 52

Query :: Recorded inhibition at 1 µM of CN(C)CCOc1cncc(-c2ccc3[nH]c4ncnc(N[C@H]5CC[C@H](N6CCOCC6)CC5)c4c3c2)c1 [Compound 6aag] , please.
Result :: 82

Query :: Recorded inhibition at 1 µM of CCOC(=O)c1ccc2[nH]c3ncnc(N[C@H]4CC[C@H](N5CCOCC5)CC4)c3c2c1 [Compound 5ba] , please.
Result :: 83

Query :: Recorded inhibition at 1 µM of O=c1[nH]nc(-c2ccc3[nH]c4ncnc(N[C@H]5CC[C@H](N6CCOCC6)CC5)c4c3c2)[nH]1 [Compound 6baf] , please.
Result :: 70

----------
Assignment: determine reported inhibition at 1 µM for the given compounds.
# Test system: IFN-α secretion, peripheral blood mononuclear cells (PBMCs)
# assay-name: Suppression of IFN-α secretion in ODN2216-treated PBMCs (ELISA)
# Assay type: cell-based
# test-parameters: PBMC, 1 μM, 500 nM ODN2216, 72 hours, read-out: IFN-α, % inhibition degree
Note: unit % is implicit; provide only the numeric part.

Query :: Recorded inhibition at 1 µM of Fc1ccc(-c2ccc3[nH]c4ncnc(N[C@H]5CC[C@H](N6CCOCC6)CC5)c4c3c2)cc1 , please.
Result :: 71

Query :: Recorded inhibition at 1 µM of COc1cccc(-c2ccc3[nH]c4ncnc(N[C@H]5CC[C@H](N6CCOCC6)CC5)c4c3c2)c1 , please.
Result :: 56

Query :: Recorded inhibition at 1 µM of N#Cc1cccc(-c2ccc3[nH]c4ncnc(N[C@H]5CC[C@H](N6CCOCC6)CC5)c4c3c2)c1 , please.
Result :: 98

Query :: Recorded inhibition at 1 µM of CCOC(=O)c1ccc2[nH]c3ncnc(N[C@H]4CC[C@H](N(C)C)CC4)c3c2c1 , please.
Result :: 90

Query :: Recorded inhibition at 1 µM of COc1cncc(-c2ccc3[nH]c4nccc(N[C@H]5CC[C@H](N6CCOCC6)CC5)c4c3c2)c1 [Compound 17b] , please.
Result :: 110

Query :: Recorded inhibition at 1 µM of Fc1ccc(-c2ccc3[nH]c4ncnc(N[C@H]5CC[C@H](N6CCOCC6)CC5)c4c3c2)c(F)c1 , please.
Result :: 55

Query :: Recorded inhibition at 1 µM of Cn1cc(-c2ccc3[nH]c4ncnc(Nc5ccc(N6CCNCC6)cc5)c4c3c2)cn1 , please.
Result :: 65

Query :: Recorded inhibition at 1 µM of Fc1cncc(-c2ccc3[nH]c4ncnc(N[C@H]5CC[C@H](N6CCOCC6)CC5)c4c3c2)c1 , please.
Result :: 96

Query :: Recorded inhibition at 1 µM of CN(C)[C@H]1CC[C@H](Nc2ncnc3[nH]c4ccc(-c5cncc(F)c5)cc4c23)CC1 , please.
Result :: 81.3

Query :: Recorded inhibition at 1 µM of c1ncc(-c2ccc3[nH]c4ncnc(N[C@H]5CC[C@H](N6CCOCC6)CC5)c4c3c2)cn1 , please.
Result :: 84

Query :: Recorded inhibition at 1 µM of COc1ccc(-c2ccc3[nH]c4ncnc(N[C@H]5CC[C@H](N6CCOCC6)CC5)c4c3c2)cn1 , please.
Result :: 79

Query :: Recorded inhibition at 1 µM of CN(C)CCOc1cncc(-c2ccc3[nH]c4ncnc(N[C@H]5CC[C@H](N6CCOCC6)CC5)c4c3c2)c1 , please.
Result :: 89.5

Query :: Recorded inhibition at 1 µM of COc1cncc(-c2ccc3[nH]c4nccc(N[C@H]5CC[C@H](N6CCN(S(C)(=O)=O)CC6)CC5)c4c3c2)c1 [Compound 17c] , please.
Result :: 99

Query :: Recorded inhibition at 1 µM of Cn1cc(-c2ccc3[nH]c4ncnc(N[C@H]5CC[C@H](N6CCOCC6)CC5)c4c3c2)cn1 , please.
Result :: 21

Query :: Recorded inhibition at 1 µM of c1cc(-c2ccc3c(c2)[nH]c2ncnc(N[C@H]4CC[C@H](N5CCOCC5)CC4)c23)ccn1 , please.
Result :: 60

----------
# System: TNF-α secretion, peripheral blood mononuclear cells (PBMCs)
# assay-name: Suppression of TNF-α secretion in LPS-treated PBMCs (ELISA)
# Type: cell-based
# test-parameters: PBMC, 0.1 μM, 100 ng/ml LPS, 24 hours, read-out: TNF-α, % inhibition degree
endpoint-name: inhibition at 0.1 µM (%)
Note: unit % is implicit; provide only the numeric part.

Query :: Recorded inhibition at 0.1 µM of N#Cc1cccc(-c2ccc3[nH]c4ncnc(N[C@H]5CC[C@H](N6CCOCC6)CC5)c4c3c2)c1 [Compound 6aak] , please.
Result :: 16

Query :: Recorded inhibition at 0.1 µM of CN(C)CCOc1cncc(-c2ccc3[nH]c4ncnc(N[C@H]5CC[C@H](N6CCOCC6)CC5)c4c3c2)c1 [Compound 6aag] , please.
Result :: 16.7

Query :: Recorded inhibition at 0.1 µM of c1cc(-c2ccc3[nH]c4ncnc(N[C@H]5CC[C@H](N6CCOCC6)CC5)c4c3c2)ccn1 [Compound 6aab] , please.
Result :: 44

Query :: Recorded inhibition at 0.1 µM of Fc1cc(F)cc(-c2ccc3[nH]c4ncnc(N[C@H]5CC[C@H](N6CCOCC6)CC5)c4c3c2)c1 [Compound 6aal] , please.
Result :: 13

Query :: Recorded inhibition at 0.1 µM of Cn1cc(-c2ccc3[nH]c4ncnc(N[C@H]5CC[C@H](N6CCN(S(C)(=O)=O)CC6)CC5)c4c3c2)cn1 [Compound 6aca] , please.
Result :: 29

Query :: Recorded inhibition at 0.1 µM of CCOC(=O)c1ccc2[nH]c3ncnc(N[C@H]4CC[C@H](N5CCOCC5)CC4)c3c2c1 [Compound 5ba] , please.
Result :: 31.7

Query :: Recorded inhibition at 0.1 µM of Fc1cncc(-c2ccc3[nH]c4ncnc(N[C@H]5CC[C@H](N6CCOCC6)CC5)c4c3c2)c1 [Compound 6aaf] , please.
Result :: 51
